// reported melting point for each item listed
readoutKind: melting point

- CS(=O)(=O)c1cc(C(=O)N=C(N)N)ccc1C(F)(F)F: 146 to 147 °C
- CC(C)(C)c1cccc(S(=O)(=O)n2ccc3cc(C(F)(F)F)ccc32)c1: 84 to 86 °C
- Cc1ccc(CNC(=O)c2ccc3n2Cc2ccccc2N(C(=O)CSc2ccc(Br)cc2)C3)cc1: 131 to 132 °C
- CC(C)=Nn1c(C(F)(F)F)cc(=O)n(-c2cc(Oc3ccccc3[N+](=O)[O-])c(Cl)cc2F)c1=O: 173 to 176 °C
- CN(C)S(=O)(=O)c1cc(-c2csc(=Nc3ccccc3)n2C)ccc1Cl: 180 °C
- CC(C)(C)NC(=O)c1ccc(C(O)CCCc2cn([Si](C)(C)C)cn2)cc1 (stereo not drawn): 141 to 143 °C
- CC12CCC3C4CCC(=O)C=C4CC(CCCCCCCCCCCO[Si](C)(C)C(C)(C)C)C3C1CCC2=O (stereo not drawn): 65 °C
- CC(C)(Cc1c(C(C)(C)C)c2cc(OCc3ccc4ccccc4n3)ccc2n1Cc1ccc(Cl)cc1)C(=O)O: 201 to 202 °C
